Molecular target: MAPK14 (human)
Assay: Inhibition of MAPK14 Kinase Activity by PHAS-I Assay
Details: concentration not given here
METRIC: inhibition (%)
Answers are plain numbers, in %.

Dear colleague, could you send me inhibition for each of the items below? Thanks.
1. CSc1ccccc1NC(=O)Cn1nc(-c2ccc(F)cc2)c(-c2ccncc2)c1C
2. O=C(NCCc1[nH]nc(-c2ccc(F)cc2)c1-c1ccncc1)C1CCC1
3. Cc1c(-c2ccncc2)c(-c2ccc(F)cc2)nn1CC(=O)NC(Cc1ccccc1)c1ccccc1 (stereo not given)
4. COc1ccc(CC(=O)NCCCc2[nH]nc(-c3ccc(F)cc3)c2-c2ccncc2)cc1OC
5. C=CCOC(=O)NCc1[nH]nc(-c2ccc(F)cc2)c1-c1ccncc1

Result:
82
72
44
67
97

----------
Target: MAPK14 (human) (UniProt Q16539)
Sequence (Q16539 whole entry, looked up): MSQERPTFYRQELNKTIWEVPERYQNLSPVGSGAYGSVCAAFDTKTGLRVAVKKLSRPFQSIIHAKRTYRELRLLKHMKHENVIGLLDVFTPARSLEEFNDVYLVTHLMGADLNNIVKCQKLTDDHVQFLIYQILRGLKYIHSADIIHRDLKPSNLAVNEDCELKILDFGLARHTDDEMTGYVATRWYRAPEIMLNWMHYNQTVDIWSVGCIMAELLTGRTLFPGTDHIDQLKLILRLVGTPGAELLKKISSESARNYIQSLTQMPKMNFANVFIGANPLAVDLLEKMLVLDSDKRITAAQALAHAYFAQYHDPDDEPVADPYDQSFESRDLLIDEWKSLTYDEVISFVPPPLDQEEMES
Experiment: Inhibition of LPS Stimulated TNF Production by U937 Cells
Settings: concentration not given here
Rule: inhibition of 20% or more gives condition met; anything lower gives condition not met.

Task: Determine whether measured inhibition meets or exceeds 20% for O=C(NCc1[nH]nc(-c2ccc(F)cc2)c1-c1ccncc1)c1cccc(CCl)c1
Result: condition met

Task: Input Cc1noc(C)c1S(=O)(=O)N[C@@H](C)c1[nH]nc(-c2ccc(F)cc2)c1-c1ccncc1
Result: condition met

----------
Assign inhibition to each entry below.
Biological target: MAPK14 (human)
Assay: Inhibition of LPS Stimulated TNF Production by U937 Cells
Details: concentration not given here
One number for each entry, in %.

| COMPOUND | UNIT_TEXT | inhibition |
| --- | --- | --- |
| O=C(NCCc1[nH]nc(-c2ccc(F)cc2)c1-c1ccncc1)c1ccccc1C(F)(F)F | % | 27 |
| O=S(=O)(NCCc1[nH]nc(-c2ccc(F)cc2)c1-c1ccncc1)c1ccc(F)cc1F | % | 34 |
| O=C(NCc1[nH]nc(-c2ccc(F)cc2)c1-c1ccncc1)Nc1ccc(C(F)(F)F)cc1 | % | 10 |
| COc1ccc(Cl)cc1S(=O)(=O)N[C@@H](C)c1[nH]nc(-c2ccc(F)cc2)c1-c1ccncc1 | % | 76 |
| COc1ccc(CC(=O)N[C@H](C)c2[nH]nc(-c3ccc(F)cc3)c2-c2ccncc2)cc1 | % | 29 |

Please look at the items below and tell me inhibition for each one, in order.
1. CC(C)NC(=O)N[C@@H](C)c1[nH]nc(-c2ccc(F)cc2)c1-c1ccncc1
2. CN(C)c1cccc2c(S(=O)(=O)NCc3[nH]nc(-c4ccc(F)cc4)c3-c3ccncc3)cccc12
3. CC(=O)O[C@@H](C)C(=O)NCCc1[nH]nc(-c2ccc(F)cc2)c1-c1ccncc1
4. Cc1c(-c2ccncc2)c(-c2ccc(F)cc2)nn1CC(=O)NC(C)Cc1c[nH]c2ccccc12 (configuration not stated)
5. CCc1ccc(S(=O)(=O)NCc2[nH]nc(-c3ccc(F)cc3)c2-c2ccncc2)cc1
6. C[C@@H](NS(=O)(=O)C(F)(F)F)c1[nH]nc(-c2ccc(F)cc2)c1-c1ccncc1

Result:
47
2
73
28
8
18

Each compound below has a reported value. Please supply its inhibition.
1. Cc1ccc(F)cc1S(=O)(=O)N[C@@H](C)c1[nH]nc(-c2ccc(F)cc2)c1-c1ccncc1
2. COc1ccc(OC)c(NC(=O)NCc2[nH]nc(-c3ccc(F)cc3)c2-c2ccncc2)c1
3. COc1cccc(C(=O)NCCc2[nH]nc(-c3ccc(F)cc3)c2-c2ccncc2)c1

Result:
72
40
23
